- System: CD8+ T cells
- Assay: In vitro T-cell priming immunogenicity assay (aAPC with pMHC and anti-CD28, multimer staining)
- Assay type: cell-based, human
- Condition Info: HLA-A*02 restricted peptides; percentage of positive wells and donors (among evaluable)
Test Readout: Wells positive [%]

# annotated cases, reported Wells positive [%] shown
{"Substance": "60 (SLLIDVITV; listed as Homo sapiens) [compound 60]", "Tested System": "CD8+ T cells", "Wells positive [%]": "“+++” (50% - 69% = +++)"}
{"Substance": "37 (VLGNALEGV; listed as Homo sapiens) [compound 37]", "Tested System": "CD8+ T cells", "Wells positive [%]": "“+” (<20% = +)"}
{"Substance": "33 (LLANIVPIAMLV; listed as Homo sapiens) [compound 33]", "Tested System": "CD8+ T cells", "Wells positive [%]": "“+” (<20% = +)"}
{"Substance": "13 (HLVPASWKL; listed as Homo sapiens) [compound 13]", "Tested System": "CD8+ T cells", "Wells positive [%]": "“+++” (50% - 69% = +++)"}
{"Substance": "21 (ALFKEAYSL; listed as Homo sapiens) [compound 21]", "Tested System": "CD8+ T cells", "Wells positive [%]": "“+” (<20% = +)"}
{"Substance": "262 (LMGPVVHEV; listed as Homo sapiens) [compound 262]", "Tested System": "CD8+ T cells", "Wells positive [%]": "“++” (20% - 49% = ++)"}

// query Provide CD8+ T cells Wells positive [%] reading for 46 (FLVEEIFQT; listed as Homo sapiens) [compound 46] .
// result “+” (<20% = +)

// query Provide CD8+ T cells Wells positive [%] reading for 25 (FLDTSNQHLL; listed as Homo sapiens) [compound 25] .
// result “+” (<20% = +)

// query Provide CD8+ T cells Wells positive [%] reading for 19 (VLEAILPLV; listed as Homo sapiens) [compound 19] .
// result “+” (<20% = +)

// query Provide CD8+ T cells Wells positive [%] reading for 74 (SLDLRPLEV; listed as Homo sapiens) [compound 74] .
// result “++” (20% - 49% = ++)

====

- Tested System: HLA-A*02:01 (Homo sapiens, UniProt P04439, D140Y/D185E/D98H/E176V/E277Q/G131W/G231S/I119V/I121R/I166T/I218V/L300P/L318F/N151K/N90K/P208A/P217A/Q86G/Q94H/R138H/R169H/T345S)
- Assay: MHC binding assay (UV-ligand exchange, beta2m ELISA)
- Condition Info: binding to HLA-A*02:01, UV-ligand exchange
- Text: Candidate peptides for T cell based therapies according to the present invention were further tested for their MHC binding capacity (affinity). The individual peptide-MHC complexes were produced by UV-ligand exchange, where a UV-sensitive peptide is cleaved upon UV-irradiation, and exchanged with the peptide of interest as analyzed. Only peptide candidates that can effectively bind and stabilize the peptide-receptive MHC molecules prevent dissociation of the MHC complexes. […]
Test Readout: Peptide exchange (MHC class I binding score, peptide exchange yield)

# annotated cases, reported Peptide exchange (MHC class I binding score, peptide exchange yield) shown
{"Substance": "132 (VLQDQVDEL; listed as Homo sapiens) [compound 132]", "Result": "“++” (≥20% = ++)"}
{"Substance": "237 (YLDRLIPQA; listed as Homo sapiens) [compound 237]", "Result": "“+++” (≥50 = +++)"}
{"Substance": "130 (VIFSYVLGV; listed as Homo sapiens) [compound 130]", "Result": "“+++” (≥50 = +++)"}
{"Substance": "36 (VILDIPLLFET; listed as Homo sapiens) [compound 36]", "Result": "“+++” (≥50 = +++)"}
{"Substance": "255 (GMWNPNAPVFL; listed as Homo sapiens) [compound 255]", "Result": "“++++” (≥75% = ++++)"}

// query Kindly indicate its recorded Peptide exchange (MHC class I binding score, peptide exchange yield). Item: 242 (GILDFZVFL; listed as Homo sapiens) [compound 242]
// result “++++” (≥75% = ++++)

// query Kindly indicate its recorded Peptide exchange (MHC class I binding score, peptide exchange yield). Item: 223 (FLQDIPDGLFL; listed as Homo sapiens) [compound 223]
// result “++” (≥20% = ++)

// query Kindly indicate its recorded Peptide exchange (MHC class I binding score, peptide exchange yield). Item: 285 (SITAVTPLL; listed as Homo sapiens) [compound 285]
// result “+++” (≥50 = +++)

// query Kindly indicate its recorded Peptide exchange (MHC class I binding score, peptide exchange yield). Item: 151 (ILVKQSPML; listed as Homo sapiens) [compound 151]
// result “+++” (≥50 = +++)

// query Kindly indicate its recorded Peptide exchange (MHC class I binding score, peptide exchange yield). Item: 12 (GLLLLVPLL; listed as Homo sapiens) [compound 12]
// result “+++” (≥50 = +++)

// query Kindly indicate its recorded Peptide exchange (MHC class I binding score, peptide exchange yield). Item: 259 (TVLDGLEFKV; listed as Homo sapiens) [compound 259]
// result “++++” (≥75% = ++++)

// query Kindly indicate its recorded Peptide exchange (MHC class I binding score, peptide exchange yield). Item: 15 (IIIEDLLEA; listed as Homo sapiens) [compound 15]
// result “++++” (≥75% = ++++)

// query Kindly indicate its recorded Peptide exchange (MHC class I binding score, peptide exchange yield). Item: 216 (KVVSNLPAI; listed as Homo sapiens) [compound 216]
// result “++” (≥20% = ++)

// query Kindly indicate its recorded Peptide exchange (MHC class I binding score, peptide exchange yield). Item: 204 (RLCDIVVNV; listed as Homo sapiens) [compound 204]
// result “++” (≥20% = ++)

// query Kindly indicate its recorded Peptide exchange (MHC class I binding score, peptide exchange yield). Item: 195 (ALIPDLNQI; listed as Homo sapiens) [compound 195]
// result “+++” (≥50 = +++)

// query Kindly indicate its recorded Peptide exchange (MHC class I binding score, peptide exchange yield). Item: 214 (FLFDGSMSL; listed as Homo sapiens) [compound 214]
// result “+++” (≥50 = +++)

// query Kindly indicate its recorded Peptide exchange (MHC class I binding score, peptide exchange yield). Item: 269 (VLQNVAFSV; listed as Homo sapiens) [compound 269]
// result “++++” (≥75% = ++++)

// query Kindly indicate its recorded Peptide exchange (MHC class I binding score, peptide exchange yield). Item: 95 (LLFDLIPVVSV; listed as Homo sapiens) [compound 95]
// result “+++” (≥50 = +++)

// query Kindly indicate its recorded Peptide exchange (MHC class I binding score, peptide exchange yield). Item: 143 (TLHAVDVTL; listed as Homo sapiens) [compound 143]
// result “+++” (≥50 = +++)

// query Kindly indicate its recorded Peptide exchange (MHC class I binding score, peptide exchange yield). Item: 25 (FLDTSNQHLL; listed as Homo sapiens) [compound 25]
// result “+++” (≥50 = +++)

// query Kindly indicate its recorded Peptide exchange (MHC class I binding score, peptide exchange yield). Item: 298 (ALTDVILCV; listed as Homo sapiens) [compound 298]
// result “++++” (≥75% = ++++)

// query Kindly indicate its recorded Peptide exchange (MHC class I binding score, peptide exchange yield). Item: 176 (YLHIYESQL; listed as Homo sapiens) [compound 176]
// result “+++” (≥50 = +++)

// query Kindly indicate its recorded Peptide exchange (MHC class I binding score, peptide exchange yield). Item: 202 (ALAAGGYDV; listed as Homo sapiens) [compound 202]
// result “++” (≥20% = ++)

// query Kindly indicate its recorded Peptide exchange (MHC class I binding score, peptide exchange yield). Item: 29 (ILSDVTQGL; listed as Homo sapiens) [compound 29]
// result “+++” (≥50 = +++)

// query Kindly indicate its recorded Peptide exchange (MHC class I binding score, peptide exchange yield). Item: 227 (IIAEGIPEA; listed as Homo sapiens) [compound 227]
// result “++” (≥20% = ++)

// query Kindly indicate its recorded Peptide exchange (MHC class I binding score, peptide exchange yield). Item: 135 (ALTGLQFQL; listed as Homo sapiens) [compound 135]
// result “+++” (≥50 = +++)

// query Kindly indicate its recorded Peptide exchange (MHC class I binding score, peptide exchange yield). Item: 115 (LLIDIIHFL; listed as Homo sapiens) [compound 115]
// result “++++” (≥75% = ++++)
